assay: Quantitative High-Throughput drug screen in 47 multiple myeloma cell lines against the NCATS MIPE library collection: KMS34_JCRB cell viability assay (AID 1918985); settings: KMS34 myeloma viability, CellTiter-Glo ATP luminescence, 48 h; series mostly up to 45.8 µM; also: nearly all actives have a fitted effect of over 40% in size
Results filed as inconclusive are left out. Activity calls are given as the source filed them. Calls follow the shape of the dose curve; as a rule, active = well fitted cell-killing curve with a large enough effect; inconclusive = small, poorly fitted or top-dose-only effect, or effect the other way; inactive = no such curve, though single readings can be large or run the other way.
Please answer using one outcome listed in Yes for active, No for inactive

O=C1CC[C@@]2(O)[C@H]3Cc4ccc(O)c5c4[C@@]2(CCN3CC2CC2)[C@H]1O5: No

**Q:** I'd appreciate the recorded outcome for C#CCN(C)[C@H](C)Cc1ccccc1 from this test.
**A:** No

**Q:** Another molecule to check: O=C(O)C(=O)c1cn(Cc2ccccc2)c2ccc(-c3ccc(OC(F)(F)F)cc3)cc12
**A:** No

**Q:** Another molecule to check: N[C@@H](Cc1ccc(N(CCCl)CCCl)cc1)C(=O)O
**A:** Yes

---

details: Ebola virus entry assay, blue channel fluorescence
Activity calls are given as the source filed them. The rule behind the calls is not given here.
Please answer using one outcome listed in yes (1) (active), no (0) (inactive)

Solved cases (3 shown):
NS(=O)(=O)c1cc2c(cc1C(F)(F)F)NCNS2(=O)=O: no (0)
N=C(N)c1ccc(OCCCCCOc2ccc(C(=N)N)cc2)cc1: no (0)
CCCCOCCOCCOCc1cc2c(cc1CCC)OCO2: no (0)

**Q:** I'd appreciate the recorded outcome for Cn1cnc([N+](=O)[O-])c1Sc1ncnc2nc[nH]c12 from this test.
**A:** no (0)

**Q:** Another compound to check: CC(COc1ccccc1)N(CCCl)Cc1ccccc1 (stereo unspecified)
**A:** yes (1)

**Q:** Another compound to check: CN1CCc2cccc3c2[C@H]1Cc1ccc(O)c(O)c1-3
**A:** yes (1)

**Q:** Another compound to check: CCCN[C@H]1CCc2nc(N)sc2C1
**A:** no (0)

**Q:** Another compound to check: COC1=CC(=O)C[C@@H](C)[C@]12Oc1c(Cl)c(OC)cc(OC)c1C2=O
**A:** no (0)

**Q:** Another compound to check: Oc1ccc(C2CNCCc3c2cc(O)c(O)c3Cl)cc1 (stereo unspecified)
**A:** no (0)

**Q:** Another compound to check: Nc1ccc(O)c(C(=O)O)c1
**A:** yes (1)

**Q:** Another compound to check: C[C@@H]1C[C@H]2[C@@H]3CCC4=CC(=O)C=C[C@]4(C)[C@@]3(F)[C@@H](O)C[C@]2(C)[C@@]1(O)C(=O)CO
**A:** no (0)

---

conditions: Ebola virus entry assay, blue channel fluorescence
Calls of active or inactive are those of the source. Calls follow the shape of the full dose curve. Numbered stars: 1 amine (or outer) side, 2 acyl side, 3 side chain; on linkers, the order of the positions; unused ones are H or OH. Bridge positions count the residues as written; N and C are the ends. Square brackets hold non-standard residues; d marks the D form. Peptide text beside a SMILES is read from it. I, II: the chains in the order shown. Actinocin(9to1) = Cc1c2oc3c(C)ccc(C(=O)[*:1])c3nc-2c(C(=O)[*:2])c(N)c1=O; NMeV = CN[C@H](C(=O)O)C(C)C; Sar = CNCC(=O)O
measuredEndpoint: AC50

Reference set, count: 5
Nc1cc(-c2ccncc2)c[nH]c1=O: inactive
COC(=O)Nc1nc2ccc(C(=O)c3ccccc3)cc2[nH]1: 5.62 µM (active)
CNC(=O)c1cc(Oc2ccc(NC(=O)Nc3ccc(Cl)c(C(F)(F)F)c3)cc2)ccn1: inactive
Clc1ccc2c(c1)C(N1CCNCC1)=Nc1ccccc1O2: 14.1 µM (active)
Cc1c2oc3c(C)ccc(C(=O)N[C@@H]4C(=O)N[C@H](C(C)C)C(=O)N5CCC[C@H]5C(=O)N(C)CC(=O)N(C)[C@@H](C(C)C)C(=O)O[C@@H]4C)c3nc-2c(C(=O)N[C@@H]2C(=O)N[C@H](C(C)C)C(=O)N3CCC[C@H]3C(=O)N(C)CC(=O)N(C)[C@@H](C(C)C)C(=O)O[C@@H]2C)c(N)c1=O (I: T[dV]P[Sar][NMeV] / II: T[dV]P[Sar][NMeV]; ester I:1-I:C, II:1-II:C; linker I:N-II:N via Actinocin(9to1)): inactive

**Q:** Need AC50 of Cc1c(O)cccc1C(=O)N[C@@H](CSc1ccccc1)[C@H](O)CN1C[C@H]2CCCC[C@H]2C[C@H]1C(=O)NC(C)(C)C , thanks.
**A:** inactive

**Q:** Another compound to check: NS(=O)(=O)c1cc2c(cc1C(F)(F)F)NCNS2(=O)=O
**A:** inactive

**Q:** Another compound to check: COc1c(C)c2c(c(O)c1C/C=C(\C)CCC(=O)OCCN1CCOCC1)C(=O)OC2
**A:** inactive

**Q:** Another compound to check: CN1CCN(C(=O)O[C@H]2c3nccnc3C(=O)N2c2ccc(Cl)cn2)CC1
**A:** inactive

**Q:** Another compound to check: CC(N)C12CC3CC(CC(C3)C1)C2 (centres undefined)
**A:** inactive

**Q:** Another compound to check: Nc1ncn([C@@H]2O[C@H](CO)[C@@H](O)[C@H]2O)c(=O)n1
**A:** inactive

**Q:** Another compound to check: CC[C@@H]([C@H](C)O)n1ncn(-c2ccc(N3CCN(c4ccc(OC[C@@H]5CO[C@@](Cn6cncn6)(c6ccc(F)cc6F)C5)cc4)CC3)cc2)c1=O
**A:** 10 µM (active)

**Q:** Another compound to check: O=NN(CCCl)C(=O)NCCCl
**A:** inactive

**Q:** Another compound to check: CC(=O)OCC(CCn1cnc2cnc(N)nc21)COC(C)=O
**A:** inactive
